- test: 14C assay with IPTG-induced recombinant E. coli cells (14CO2 capture from [14C]-carboxyl-labeled dicamba)
- applied_conditions: IPTG-induced recombinant E. coli cells; [14C]-carboxyl-labeled dicamba; 14CO2 capture

- molecule: "43 (protein, listed as Rhizobium leguminosarum) MAQGKIALEEHFAIPETLQDSAGFVPGDYWTELSARLLDIQDKRLRLMDTHGIEKMILSLNAPAVQAIPDKAKAVEISRRANDFLAEQCVKNPNRFLGFAALPLQDPDAATQELQRCVTTMGFVGALVNGFSQEGDGTTPLYYDLPQYRPFWAEVEKLDVPFYLHPRNPLPQDSRIYAGHSWLMGPTWAFAQETAVHALRLMGSGLFDEHPALRIIVGHMGEGLPYMMWRIDNRNAWVKVEKSYPAKRPIADYFNENFYITTSGNFRTQSLIDAMLEIGADRILFSADWPFENVDHAANWFDSATISEADRLKIGRTNAVSLFKLDR"
  Dicamba Decarboxylase Activity: "High"
- molecule: "33 (protein, listed as Rhizobium leguminosarum) MAQGKIALEEHFAIPETLQDSAGFVPGDYWKELSARLLDIQEKRLRLMDAHGIEKMILSLNAPAVQAIPDRAKALEISRRANDFLAEQCVKNPNRFLGFAALPLQDPDAATQELQRCVTTMGFVGALVNGFSQEGDGTTPLYYDLPQYRSFWAEVEKLNVPFYLHPRNPLPQDSRIYAGHSWLMGPTWAFAQETAVHALRLMGSGLFDEHPALRIIVGHMGEGLPYMMWRIDNRNAWVKVEKSYPAKRPIADYFNENFYITTSGNFRTQSLIDAMLEIGADRILFSADWPFENIDHAANWFDSATISEADRLKIGRTNAVSLFKLDR"
  Dicamba Decarboxylase Activity: "High"
